- assay_summary: Cytotoxicity activity against human HepG2 cells assessed by CellTiter-Glo luminescent cell viability assay.
- Assay type: toxicity, cell-based
- Set-up: assay stage confirmatory assay, source tissue liver
- test_settings: HepG2 cells, read-out: IC50 relative
Structures can show the parent of a compound that is named as a salt. Activity calls are given as the source filed them. The rule behind the calls is not given here.
attribute_measured: CC50

[
  {
    "molecule": "CCCCC(=O)Nc1ccc(Nc2nc(C)cc(N3CCOCC3)n2)cc1",
    "attribute_measured": "CC50",
    "result": "10.1 µM (active)"
  },
  {
    "molecule": "CS(=O)(=O)N1CCc2ccc(NC(=O)Nc3ccc(F)cc3F)cc21",
    "attribute_measured": "CC50",
    "result": "24.5 µM (inactive)"
  },
  {
    "molecule": "CCc1ccc(-c2cc3c(=O)n(CC(=O)NCCCN4CCCC4)nc(C)n3n2)cc1",
    "attribute_measured": "CC50",
    "result": "11.4 µM (active)"
  },
  {
    "molecule": "O=C(NCCN1CCCC1)C1CCN(c2nn3cc(-c4ccc(F)cc4)nc3s2)CC1",
    "attribute_measured": "CC50",
    "result": "2.7 µM (active)"
  },
  {
    "molecule": "O=C(Nc1nc(-c2ccco2)cs1)c1cccnc1N1CCOCC1",
    "attribute_measured": "CC50",
    "result": "1.6 µM (active)"
  },
  {
    "molecule": "Cc1ccc(S(=O)(=O)/N=C2\\C=C(Sc3nc[nH]n3)C(=O)c3ccccc32)cc1",
    "attribute_measured": "CC50",
    "result": "4.8 µM (active)"
  },
  {
    "molecule": "COc1ccc(-n2ccc(C(=O)Nc3cnccc3C(N)=O)n2)cc1",
    "attribute_measured": "CC50",
    "result": "5.4 µM (active)"
  },
  {
    "molecule": "CN(C)CC[C@H](CSc1ccccc1)Nc1ccc(S(=O)(=O)NC(=O)c2ccc(N3CCN(Cc4ccccc4-c4ccc(Cl)cc4)CC3)cc2)cc1[N+](=O)[O-]",
    "attribute_measured": "CC50",
    "result": "13.2 µM (active)"
  },
  {
    "molecule": "Cc1cccnc1C(NC(=O)CCOc1ccccc1)C1CC1 (stereo unspecified)",
    "attribute_measured": "CC50",
    "result": "36.5 µM (inactive)"
  },
  {
    "molecule": "CCN1CCN(CCCNC(=O)c2cc3c(=O)n(C)c4ccccc4c3s2)CC1",
    "attribute_measured": "CC50",
    "result": "4.1 µM (active)"
  },
  {
    "molecule": "COc1cc(/C=C2\\CCCN([C@@H](C)c3ccc(F)cc3)C2=O)ccc1-n1cnc(C)c1",
    "attribute_measured": "CC50",
    "result": "12.8 µM (active)"
  },
  {
    "molecule": "COc1ccc(C)cc1CN(C)C(=O)CCn1c(=O)[nH]c(=O)c2ccccc21",
    "attribute_measured": "CC50",
    "result": "0.2 µM (active)"
  },
  {
    "molecule": "CC1Oc2ccc(S(=O)(=O)N3CCN(C(=O)c4ccc(Cl)cc4)CC3)cc2NC1=O (stereo unspecified)",
    "attribute_measured": "CC50",
    "result": "6.6 µM (active)"
  },
  {
    "molecule": "CC1CC(C)CN(CCCNC(=O)Cn2nc(-c3ccc(Cl)cc3)ccc2=O)C1 (stereo unspecified)",
    "attribute_measured": "CC50",
    "result": "14.5 µM (inactive)"
  },
  {
    "molecule": "COc1ncccc1NC(=O)c1n[nH]c2ccccc12",
    "attribute_measured": "CC50",
    "result": "0.1 µM (active)"
  },
  {
    "molecule": "Cc1nonc1Cn1nc(Cl)c(Cl)cc1=O",
    "attribute_measured": "CC50",
    "result": "21.6 µM (inactive)"
  },
  {
    "molecule": "O=C1NCCN1CCN1CCC(c2cn(-c3ccc(F)cc3)c3ccc(Cl)cc23)CC1",
    "attribute_measured": "CC50",
    "result": "2.7 µM (active)"
  },
  {
    "molecule": "CCOc1cc(/C=C2/C(=O)N(c3ccccc3)N=C2C)cc(Cl)c1OCC(=O)OC",
    "attribute_measured": "CC50",
    "result": "12.3 µM (active)"
  },
  {
    "molecule": "COc1cc2nc(N3CCN(C(=O)c4ccco4)CC3)nc(N)c2cc1OC [PRAZOSIN HYDROCHLORIDE]",
    "attribute_measured": "CC50",
    "result": "6.6 µM (active)"
  },
  {
    "molecule": "CCOc1ccc(OCCN2CCC[C@H](n3ccnc3CC)C2)cc1",
    "attribute_measured": "CC50",
    "result": "8.4 µM (active)"
  },
  {
    "molecule": "Cc1c2ccncc2c(C)c2c1[nH]c1ccccc12",
    "attribute_measured": "CC50",
    "result": "1.4 µM (active)"
  },
  {
    "molecule": "COc1cc2nc(-c3cc(F)ccc3O)nc(N[C@@H]3CNC[C@H]3C(C)(C)O)c2cc1OC",
    "attribute_measured": "CC50",
    "result": "1.6 µM (active)"
  },
  {
    "molecule": "COc1ccc(Nc2nc(CN3CCN(S(=O)(=O)c4cccs4)CC3)cs2)cc1",
    "attribute_measured": "CC50",
    "result": "7.1 µM (active)"
  },
  {
    "molecule": "COc1ccc(C)cc1NC(=O)N1CCC(n2cnc3cc(F)ccc3c2=O)CC1",
    "attribute_measured": "CC50",
    "result": "9.9 µM (active)"
  },
  {
    "molecule": "Clc1nss/c1=N\\c1ccc(Br)cc1",
    "attribute_measured": "CC50",
    "result": "24.2 µM (inactive)"
  },
  {
    "molecule": "CC(=O)N1CCSc2ccc(S(=O)(=O)N3CCN(Cc4ccc5c(c4)OCO5)CC3)cc21",
    "attribute_measured": "CC50",
    "result": "6.4 µM (active)"
  },
  {
    "molecule": "CC1CCC(C(C)C)C(OC(=O)Cn2c(-c3ccc(Br)cc3)[n+](C)c3ccccc32)C1 (stereo unspecified)",
    "attribute_measured": "CC50",
    "result": "4.7 µM (active)"
  },
  {
    "molecule": "O=C(Nc1ccnc2ccnn12)c1cc2ccccc2c(=O)[nH]1",
    "attribute_measured": "CC50",
    "result": "0.1 µM (active)"
  },
  {
    "molecule": "COc1ccc(C(=O)N(C)C)cc1NC(=O)c1ccc2ccccc2n1",
    "attribute_measured": "CC50",
    "result": "8.9 µM (active)"
  },
  {
    "molecule": "CN1CCC(c2cc(-c3ccncc3)c(-c3ccc(F)cc3)[nH]2)CC1",
    "attribute_measured": "CC50",
    "result": "9.2 µM (active)"
  },
  {
    "molecule": "COc1cccc(NC(=O)N2CCN(c3ccnc(N4CCCCC4)n3)CC2)c1",
    "attribute_measured": "CC50",
    "result": "11.5 µM (active)"
  },
  {
    "molecule": "CS(=O)(=O)N1CCc2ccc(NC(=O)Nc3ccc(Br)cc3)cc21",
    "attribute_measured": "CC50",
    "result": "3.2 µM (inactive)"
  },
  {
    "molecule": "COc1ccc(CN2CCN(c3ncnc4sccc34)CC2)cc1OC",
    "attribute_measured": "CC50",
    "result": "1.4 µM (active)"
  },
  {
    "molecule": "COc1ccc2cc(CN3CCC(n4ccnc4)CC3)ccc2c1",
    "attribute_measured": "CC50",
    "result": "11.5 µM (active)"
  },
  {
    "molecule": "Cc1cccn2c(CC(=O)N3CCOc4ccc(Cl)cc4C3)cnc12",
    "attribute_measured": "CC50",
    "result": "4.9 µM (active)"
  },
  {
    "molecule": "CC(C)c1cnn2c(NCc3ccccc3)cc(NCCCCCCN)nc12",
    "attribute_measured": "CC50",
    "result": "9.3 µM (active)"
  },
  {
    "molecule": "COc1cc2c(NC3CCN(CC4CCCCC4)CC3)nc(N3CCCN(C(C)C)CC3)nc2cc1OCCCN1CCCCC1",
    "attribute_measured": "CC50",
    "result": "1.1 µM (active)"
  },
  {
    "molecule": "CCC(CC)C(c1ccc(Nc2nc3ccccc3s2)cc1)n1cncn1 (stereo unspecified)",
    "attribute_measured": "CC50",
    "result": "14.4 µM (inactive)"
  },
  {
    "molecule": "CCOCc1ccc(O)c2ncccc12",
    "attribute_measured": "CC50",
    "result": "5.6 µM (active)"
  },
  {
    "molecule": "CS(=O)(=O)N1CCN(Cc2cc3nc(-c4cccc5[nH]ncc45)nc(N4CCOCC4)c3s2)CC1",
    "attribute_measured": "CC50",
    "result": "0.9 µM (active)"
  },
  {
    "molecule": "Cn1nccc1CCNC(=O)c1csc(-c2ccoc2)n1",
    "attribute_measured": "CC50",
    "result": "2 µM (active)"
  }
]
